src = PubChem BioAssay (NCI)

- System: HOP-92 NSCLC
- test: NCI-60 one-dose screen, 48 h (100 = growth as untreated, 0 = no growth, -100 = all killed)
- cond: 10 µM
The panel holds about 83,000 compounds, 20% with a hit somewhere; the sample as a whole holds those more often.
# yes (1) = growth below 80% (exclusive); no (0) = growth at/above 80%

Examples with answers:
> print(dat)
                                   compound  experimental.system  class.assignment
1  CC(=O)/C=C/c1ccc(N(CCO)Cc2ccc(C(C)(C)C)cc2)cc1         HOP-92 NSCLC           yes (1)
2  O=C(/C=C/c1cccc(Oc2ccc(Cl)cc2)c1)c1ccccc1         HOP-92 NSCLC            no (0)
3  CC(=O)/C=C/c1ccc(OCc2ccc(C(C)(C)C)cc2)cc1         HOP-92 NSCLC            no (0)

Below: the item to evaluate.
Data request: Find out if reported growth for CC(=O)/C=C/c1ccc(N(C)Cc2ccc(C(C)(C)C)cc2)cc1 is less than 80%
Data returned: yes (1)

====

- System: TK-10 renal
- test: NCI-60 one-dose screen, 48 h (100 = growth as untreated, 0 = no growth, -100 = all killed)
- cond: 10 µM unless noted
This is part of a sample that, as a whole, favours compounds with a hit. Of some 83,000 tested, about 20% had one in any assay.
Kindly state growth for each of the entries shown.
One number for each entry, in %.

compound	growth [%]
Cc1nc2sc(C(=O)Nc3cccc4ccccc34)c(N)c2cc1C(=O)/C=C/c1ccccc1	4.36
CCOC(=O)n1cc(-c2nonc2-c2cn(C)c3ccc(OC)cc23)c2cc(F)ccc21	94.2
COc1ccc(-c2ccc(-c3ccc(C(=N)N)cn3)o2)cc1Cl	94.4

# batch size: 5; output growth per entry
1. CC(=O)c1c(C)nc2ccccc2c1/C=C/c1cccc(C)c1
2. CC(C)(C)c1cc(C(C)(C)c2ccccc2)cc(Cc2cc(C(C)(C)c3ccccc3)cc(C(C)(C)C)c2O)c1O
3. CN(C)CCCn1c2nc(=O)[nH]c(=O)c-2nc2cc(Cl)c(Cl)cc21
4. Nc1nc(N)c2c(n1)NC(c1cccc(Nc3ccnc4cc(C(F)(F)F)ccc34)c1)CC(c1ccc(F)cc1)=N2 (centres undefined)
5. COC1/C=C/OC2(C)Oc3c(C)c(O)c4c(O)c(c(C=NOC(c5ccccc5)c5ccccc5)c(O)c4c3C2=O)NC(=O)/C(C)=C/C=C/C(C)C(O)C(C)C(O)C(C)C(OC(C)=O)C1C (centres undefined)

Data returned:
[79.9, 98.1, 80.5, 91.8, 30.9]

Data request: Entry Cc1nc2sc(C(=O)Nc3cccc4ncccc34)c(N)c2cc1C(C)O (centres undefined) : reported growth = ?
Data returned: 103

====

- Tested on: SK-OV-3 ovarian
- test: NCI-60 one-dose screen, 48 h (100 = growth as untreated, 0 = no growth, -100 = all killed)
- cond: 10 µM unless noted
About 83,000 compounds went through this panel and 20% of them were active in at least one assay; those are over-represented in the sample as a whole. Calls of active or inactive are those of the source. The calls were made as follows: active = growth percent below 10; inactive = the rest.
parameter: growth

compound	experimental-system	growth
O=c1oc2c(Br)cc(Br)cc2cc1-c1cc(-c2ccc(-c3cc(-c4cc5cc(Br)cc(Br)c5oc4=O)nc(-c4cc5cc(Br)cc(Br)c5oc4=O)c3)cc2)cc(-c2cc3cc(Br)cc(Br)c3oc2=O)n1	SK-OV-3 ovarian	101% (inactive)

Please look at the items below and tell me growth for each one, in order.
1. C[C@@H]1O[C@@H](O[C@H]2[C@@H](OC(=O)[C@]34CCC(C)(C)C[C@H]3C3=CC[C@@H]5[C@@]6(C)C[C@H](O)[C@H](O[C@@H]7O[C@H](CO)[C@@H](O)[C@H](O)[C@H]7O)[C@@](C)(CO)[C@@H]6CC[C@@]5(C)[C@]3(C)C[C@H]4O)OC[C@@H](O)[C@@H]2O)[C@H](O)[C@H](O[C@@H]2OC[C@@H](O)[C@H](O[C@@H]3OC[C@](O)(CO)[C@H]3O[C@@H]3OC[C@@H](O)[C@H](O)[C@H]3O)[C@H]2O)[C@H]1O[C@@H]1OC[C@](O)(CO)[C@H]1O
2. COc1cccc(NC(=O)c2sc3nc(C)c(C(O)c4ccccc4)cc3c2N)c1 (configuration not stated)
3. C=C(CN1CC=CCC1)[C@@H]1CC[C@]2(COC(C)=O)CC[C@]3(C)[C@H](CC[C@@H]4[C@@]5(C)CC[C@H](O)C(C)(C)[C@@H]5CC[C@]43C)[C@@H]12
4. CC(C)(C)c1cc(C(C)(C)c2ccccc2)cc(Cc2cc(C(C)(C)c3ccccc3)cc(C(C)(C)C)c2O)c1O
5. CC(Sc1ccccc1)C(=O)O (configuration not stated)
6. Clc1ccc(Nc2nc(Nc3ccc(Cl)cc3)nc(Nc3ccc(-c4cc(-c5cccc(Cl)c5)on4)cc3)n2)cc1

Data returned:
93.9% (inactive)
12.5% (inactive)
115% (inactive)
105% (inactive)
97.3% (inactive)
103% (inactive)
